- Test system: OVCAR-4 ovarian
- method_notes: NCI-60 one-dose screen, 48 h
- protocol_conditions: 10 µM unless noted
- Experimental: Growth inhibition of the OVCAR-4 human tumor cell line is measured as a screen for anti-cancer activity. Cells are grown in 96 well plates and exposed to the test compound for 48 hours. Compounds are tested at a single concentration, which is 10^-5 M for most compounds. The reported endpoint is percent growth (GI% or GIPRCNT), where numbers from 0 - 100% represent growth inhibition, and numbers from -100% - 0 represent cell death. For example, a value of 40 represents 60% growth inhibition. […]
This is part of a sample that, as a whole, favours compounds with a hit. Of some 83,000 tested, about 20% had one in any assay. The source made the active and inactive calls. How the source made its calls: active means growth percent below 10; inactive means the rest.
// one of active, inactive, no free text

INSERT INTO measurements (compound, assigned_category) VALUES
  ('COc1ccc(-c2nc(-c3cn(C)c4ncccc34)cs2)cc1', 'active');

QUERY: For this compound, state the assay outcome: C[C@H](CCCC(=O)NCC#CCN1CCN(C)CC1)[C@H]1CC[C@H]2[C@@H]3CC[C@@H]4CC(=O)CC[C@]4(C)[C@H]3CC[C@]12C
RESULT: inactive

QUERY: How about COc1cc(/C=N/Nc2ccc(Br)cc2)cc(OC)c1OC ?
RESULT: inactive

QUERY: Also check COc1cc(OC)c2sc(-c3ccc(-n4cncc4-c4cc(OC)c(OC)c(OC)c4)cc3)nc2c1
RESULT: inactive

QUERY: Please do the same for CS(=O)(=O)c1ccc(NC(=O)c2ccccc2)nc1 as well.
RESULT: inactive

QUERY: And C/C=C(/C)n1cnc2c(Nc3ccccn3)nc(Cl)nc21 ?
RESULT: inactive

QUERY: Entry to check: COc1ccc(C2=CN3CC=CC3CC2=O)cc1 (centres undefined)
RESULT: inactive

QUERY: Also check CN(C)CCCC1(c2ccc(F)cc2)OCc2cc(-c3cc4ccccc4s3)ccc21 (centres undefined)
RESULT: inactive

QUERY: And then CCOC(=O)C1=C(C)/C(=C\c2[nH]c(C)c(C(=O)OCC)c2C)N=C1C , what is it?
RESULT: inactive

QUERY: Quick one: CCn1c(-c2cc3c([nH]c4ccccc43)c(-c3cccc(O)c3)n2)n[nH]c1=S
RESULT: inactive

QUERY: Then this compound: [2H]C([2H])([2H])Oc1ccc(F)cc1/C=C/C(=O)/C=C(/C=C/c1cc(F)ccc1OC([2H])([2H])[2H])OB(F)F
RESULT: inactive

QUERY: // repeat for CC/C(Cc1ccccc1)=C(\c1ccc(OCCCN(C)C)cc1)c1ccc(OC(=O)NCc2ccccc2)cc1 and report
RESULT: inactive

QUERY: Then this compound: COC(=O)CCC/C=C\C[C@H]1C=CC(=O)/C1=C/C[C@@H](O)C/C=C\CC(F)(F)F
RESULT: inactive

QUERY: // next record Cc1ccc(-c2csc(N(C(=O)N3CCN(c4cc5c(cc4F)c(=O)c(C(=O)O)cn5C4CC4)CC3)c3ccccc3)n2)cc1
RESULT: inactive

QUERY: Param item: CCOC(=O)c1c(C)c2c(n1Cc1ccccc1)CSCC2=O
RESULT: inactive

QUERY: Please answer likewise for COc1ccc(-c2nc(/C=C3\C(=O)N(C)c4ccccc43)c3ccccn23)cc1
RESULT: inactive
